# SYSTEM UNDER TEST: Muscarinic acetylcholine receptor M1 (Homo sapiens)
# METHOD SUMMARY: Displacement of [3H]NMS from human muscarinic M1 receptor expressed in CHO Flp-In cells after 1 hr by microbeta liquid scintillation counting-based radioligand binding assay
# Format: cell-based
Hi, to clarify the labels: true (1) covers Kb from 40 µM upward, false (0) covers anything below 40 µM.

Data request: I'd appreciate it if you could say whether N#Cc1ccccc1COc1ccccc1-c1ccn([C@H]2CCCC[C@@H]2O)c(=O)c1 (racemic) has Kb at least equal to 40 µM.
Data returned: true (1)

Data request: I'd appreciate it if you could say whether N#Cc1cccc(COc2ccccc2-c2ccn([C@H]3CCCC[C@@H]3O)c(=O)c2)c1 (racemic) has Kb at least equal to 40 µM.
Data returned: true (1)

Data request: I'd appreciate it if you could say whether O=c1cc(-c2ccccc2OCc2ccc(Br)cc2)ccn1[C@H]1CCCC[C@@H]1O (racemic) has Kb at least equal to 40 µM.
Data returned: true (1)

Data request: I'd appreciate it if you could say whether N#Cc1ccc(COc2ccccc2-c2ccn([C@H]3CCCC[C@@H]3O)c(=O)c2)cc1 (racemic) has Kb at least equal to 40 µM.
Data returned: false (0)

Data request: I'd appreciate it if you could say whether O=c1cc(-c2ccccc2OCc2ccc(-c3cnn(C4CCCCC4)c3)cc2)ccn1[C@H]1CCCC[C@@H]1O (racemic) has Kb at least equal to 40 µM.
Data returned: false (0)

Data request: I'd appreciate it if you could say whether O=c1cc(-c2ccccc2OCc2ccc(-c3cnn(CC4CCCCC4)c3)cc2)ccn1[C@H]1CCCC[C@@H]1O (racemic) has Kb at least equal to 40 µM.
Data returned: false (0)

Data request: I'd appreciate it if you could say whether NC(=O)c1ccc(COc2ccccc2-c2ccn([C@H]3CCCC[C@@H]3O)c(=O)c2)cc1 (racemic) has Kb at least equal to 40 µM.
Data returned: false (0)
